# Assay method text: protein stability index of a GFP-peptide fusion (GPS, HEK-293T) (PSI 1-6); higher = more stable;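 further: 24-mer peptide tiles fused after GFP, lentivirally expressed, FACS-sorted into six equal bins by GFP/DsRed ratio, decoded by Illumina sequencing, PSI is the read-weighted mean bin number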
# Test settings: treatment: DMSO; c terminus: a fixed tail appended
Entries and their protein stability index
The answer should be a number; do not append a unit.

// below: answered sequences
Return reported protein stability index. Input sequence: SGLDDFFLDIDTSAVEKEPARAPP [SERTAD3]
4.71

Return reported protein stability index. Input sequence: TDYINASFMDGYKQKNAYIGTQGP [PTPN9]
2.94

Return reported protein stability index. Input sequence: KENPECPVLKRSSESMENINSGYE [KMT2E]
5.13

Return reported protein stability index. Input sequence: RCPSSSLHMSQRERTWPPPAMSPY [C22orf15]
2.89

Return reported protein stability index. Input sequence: EHDFLDRDAIEALCRRLNTLNKCA [DLC1]
2.73

New cases:
Return reported protein stability index. Input sequence: PAPATQMPSTPGFVGYNPYSHLAY [SMARCE1]
2.37

Return reported protein stability index. Input sequence: QAGGEGAGGELGISLNMCLLGALV [PBXIP1]
2.92

Return reported protein stability index. Input sequence: EIERAIKQTQCPADPLQLNKALSI [FEM1C]
3.42

Return reported protein stability index. Input sequence: TPTPQALYPDLSCPEGLEELLSAP [SPSB2]
4.54

Return reported protein stability index. Input sequence: ELNKQVVSSSEQLQSYQAEIIELR [KRT33B]
3.76

====

# Assay method text: protein stability index of a GFP-peptide fusion (GPS, HEK-293T) (PSI 1-6); higher = more stable
# Test settings: treatment: DMSO; c terminus: a fixed tail appended
Label Fulfilled when protein stability index is at or above 3; anything below gets Not fulfilled.

Form field: protein stability index at least 3? Entry: IAQCQDSPTSGKFRRGSGSACSLL [MCOLN1]
Fulfilled

Form field: protein stability index at least 3? Entry: ESGKSTIVKQMKIIHEAGYSEEEC [GNAI1]
Fulfilled

Form field: protein stability index at least 3? Entry: PAVDLNQVLNETRNQYEALVETNR [KRT33B]
Fulfilled

====

# Assay method text: protein stability index of a GFP-peptide fusion (GPS, HEK-293T) (PSI 1-6); higher = more stable
# Test settings: treatment: DMSO; c terminus: a fixed tail appended
Entries and their protein stability index
The answer should be a number; do not append a unit.

Return reported protein stability index. Input sequence: AQLRDAVQSLQLSPRTRGSWSQPQ [RASAL3]
3.65

New cases:
Return reported protein stability index. Input sequence: PLELLPGGPARPLGPGPAAPRLLK [CEBPD]
4.33

Return reported protein stability index. Input sequence: HGEGNHIYAYDAKIEIQTLTGLFK [CASP6]
2.17

Return reported protein stability index. Input sequence: SNLQAMSTQMFQTKRCFRLAPTFS [SMG5]
2.17

====

Entries and their protein stability index
# Assay method text: protein stability index of a GFP-peptide fusion (GPS, HEK-293T) (PSI 1-6); higher = more stable
# Test settings: treatment: MLN4924 1 uM, 8 h; c terminus: a fixed tail appended

// below: answered sequences
Return reported protein stability index. Input sequence: NTEIEKLGRSIVSSPQGKSGPEAA [PKD2L1]
5.34

Return reported protein stability index. Input sequence: VIKYNVNDKFSFHEVKDNYIPVIK [RHOBTB3]
2.75

Return reported protein stability index. Input sequence: RKPAAGAQSAGTQQVAAVSSVSPA [BRD3]
4.86

Return reported protein stability index. Input sequence: RRPVNVPLDMFSEEIKFYELGEEA [KCNA1]
3.84

Return reported protein stability index. Input sequence: VQEHARCVHPRGGVIQSVSSWKHG [C18orf25]
3.03

Return reported protein stability index. Input sequence: KPKKKKEKKEKEKKKKDKEKEKEK [BRD3]
5.19

Return reported protein stability index. Input sequence: PLLLRLPRICQRNLMSLLMAVRPS [FANCE]
2.56

Return reported protein stability index. Input sequence: ESILMSLPLTARWEYMHSPSENSK [CPOX]
3.93

New cases:
Return reported protein stability index. Input sequence: SRSHDRLPYQRRYRERRDSDTYRC [CLK3]
4.24

Return reported protein stability index. Input sequence: FGLAIEVEGEQQAWFGFAGTPGYL [CAMK2A]
2.92

Return reported protein stability index. Input sequence: TLQNGRRHIHHLGNQLQLNQHCLD [BRF1]
3.31

Return reported protein stability index. Input sequence: NMNDNFLEGEEENELTLNEKNFFP [CHGB]
4.81

Return reported protein stability index. Input sequence: ALKDSLRPKLSEEQQRIIAILLDA [VDR]
2.44
